Molecular target: T1, HA-GCN4 hAPRIL (amino acid residues 105-250) (human, UniProt O75888 105-250)
T1 construct: Bought (R&D Systems); also called HA-tagged GCN4 human APRIL; HA-GCN4-huAPRIL; not shown: N-terminal HA tag; GCN4 isoleucine zipper oligomerization domain
T1 sequence: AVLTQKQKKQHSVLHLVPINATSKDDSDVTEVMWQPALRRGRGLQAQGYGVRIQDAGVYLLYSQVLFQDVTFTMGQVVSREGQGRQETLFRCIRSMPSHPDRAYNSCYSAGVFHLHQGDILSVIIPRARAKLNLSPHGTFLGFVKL
Experiment: blocking ELISA; blocked: human APRIL binding to human BCMA-Fc
Design: concentration or dose not given beside the values
experimental_endpoint: % Inhibition (%)
Use % as the unit, but write only the number.

Some binders with known % Inhibition results, for comparison:
1. monoclonal antibody 2218 (antibody, mouse IgG2, V domains shown) VH: DVQLQESGPGLVKPSQSLSLTCSVTGYSITSGYYWNWIRQFPGNKLEWMGYISYDGYNNYNPSLKNRISITRDTSKNQFFLKLNSVTTEDTATYYCANYYDYEDWYFGVWGTGTTVTVSS VL: DIVLTQSPASLAMSLGKRATISCRASESVSIIGTNSIHWYQQKPGQPPKLLIYHASNLETGVPARFSGSGSRTDFTLTIDPVEEDDVAIYYCLQSRKIPYTFGGGTKLEIK : 100
2. monoclonal antibody 3530 (antibody, mouse IgG2, V domains shown) VH: QVQLQQSGAELVRPGASVKLSCKASGYTFTDHEMHWVRQTPVHGLEWIGVIDPDTGDTTYNQKFKGKATLTADKSSSTAYMDLRSLTSEDSAVFYCTRWTGGDYWGHGTTLTVSS VL: DAVMTQTPLSLSVTIGQPASISCKSSQSLLYSDGKTYLNWFQQRPGQSPKRLMYQVSKLDPGIPDRFSGSGSETDFTLKISRVEAEDLGVYYCLQGTYYPYTFGSGTKLEIK : 35

Turning now to a further binder:
Ask: Quick one: % Inhibition of monoclonal antibody 3525 (antibody, mouse IgG2, V domains shown) VH: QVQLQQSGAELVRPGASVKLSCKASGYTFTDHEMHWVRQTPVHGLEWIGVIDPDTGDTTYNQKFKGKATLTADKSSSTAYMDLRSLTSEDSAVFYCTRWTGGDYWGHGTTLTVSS VL: DVVMTQTPLSLSVTIGQPASISCKSSQSLLYSNGKTYLNWFQQRPGQSPKRLMYQVSKLDPGIPDRFSGSGSETDFTLKISRVEAEDLGLYYCLQGTYYPYTFGGGTKLEIK ?
Reply: 48

Sourced from patent US20170145086A1
